Assay: Half life in ICR mouse at 10 mg/kg, iv measured upto 7 hrs by HPLC analysis
Assay type: ADME, organism-based
Details: in vivo
Measured Metric: half-life
# output: number + unit

Input: Quick one: half-life for "COc1cc([N+](=O)[O-])ccc1-n1cc(-c2ccc(NC(=O)c3ccc(NC(C)=O)cc3)cc2)nn1" ?
Output: 48 min

----------
Assay: Half life in ICR mouse at 10 mg/kg, ip measured upto 7 hrs by HPLC analysis
Assay type: ADME, organism-based
Details: in vivo
Measured Metric: half-life

Input: I am curious: what half-life value has been reported for "COc1cc([N+](=O)[O-])ccc1-n1cc(-c2ccc(NC(=O)c3ccc(NC(C)=O)cc3)cc2)nn1" ?
Output: 1.15 h

----------
Test: Ratio of drug concentration in ICR mouse brain to plasma at 10 mg/kg, iv by LC-MS/MS analysis
Format: ADME, organism-based
Details: read-out: BPR
Measured Metric: Kp
Answer with a bare number; do not write a unit.

Input: Kp for "COc1cc([N+](=O)[O-])ccc1-n1cc(-c2ccc(NC(=O)c3ccc(NC(C)=O)cc3)cc2)nn1" ?
Output: 0.1
